Each recorded value in this set is attributed to patent US11858905B1.

- Tested on: SARS-CoV-2 PsVs
- TEST DESCRIPTION: microbe, parasite or virus in culture
- Assay type: cell-based
- CONDITION NOTES: Severe acute respiratory syndrome coronavirus 2, Vero C1008, 24 h, read-out: % Infection rate at 5 uM
ATTRIBUTE MEASURED: activity at 5 µM (%)

> print(dat)
                            chemical.smiles  observed.result
1  N#CC1(NC(=O)[C@H](Cc2nc3cccc(Cl)c3o2)NC(=O)c2cccc(Cl)c2)CC1               20
2  N#CC1(NC(=O)[C@H](Cc2nc3ccccc3s2)NC(=O)c2cccc(Cl)c2)CC1               10
3  CC(C)(C)c1cc(C(=O)N[C@@H](Cc2nc3cc(F)cc(Cl)c3o2)C(=O)NC2(C#N)CC2)n(C2COC2)n1               13
4  CN1CC=C(c2ccc3nc(C[C@H](NC(=O)c4cccc(Cl)c4)C(=O)NC4(C#N)CC4)oc3c2)CC1               13

###

- Tested on: SARS-CoV-2 PsVs
- TEST DESCRIPTION: microbe, parasite or virus in culture
- Type: cell-based
- CONDITION NOTES: Severe acute respiratory syndrome coronavirus 2, Vero C1008, 24 h, read-out: % Infection rate at 500 nM
Collected activity at 0.5 µM values appear next to each entry.
ATTRIBUTE MEASURED: activity at 0.5 µM (%)

> print(dat)
                            chemical.smiles  attribute.measured  observed.result
1  Cc1cc(-c2ccc3nc(C[C@H](NC(=O)c4cc(C5(C)CC5)nn4C4CC4)C(=O)NCC#N)oc3c2)ccn1  activity at 0.5 µM               40
2  N#CC1(NC(=O)[C@H](Cc2nc3ccc(C(F)(F)F)cc3o2)NC(=O)c2cccc(Cl)c2)CC1  activity at 0.5 µM               86
3  N#CC1(NC(=O)[C@H](Cc2nc3ccc(Cl)cc3o2)NC(=O)c2cccc(Cl)c2)CC1  activity at 0.5 µM               97
4  CN1CC=C(c2ccc3nc(C[C@H](NC(=O)c4cccc(Cl)c4)C(=O)NC4(C#N)CC4)oc3c2)CC1  activity at 0.5 µM               40

###

- TEST TARGET: human CatL (Homo sapiens (Human), UniProt P07711)
- Sequence (P07711 whole entry, looked up): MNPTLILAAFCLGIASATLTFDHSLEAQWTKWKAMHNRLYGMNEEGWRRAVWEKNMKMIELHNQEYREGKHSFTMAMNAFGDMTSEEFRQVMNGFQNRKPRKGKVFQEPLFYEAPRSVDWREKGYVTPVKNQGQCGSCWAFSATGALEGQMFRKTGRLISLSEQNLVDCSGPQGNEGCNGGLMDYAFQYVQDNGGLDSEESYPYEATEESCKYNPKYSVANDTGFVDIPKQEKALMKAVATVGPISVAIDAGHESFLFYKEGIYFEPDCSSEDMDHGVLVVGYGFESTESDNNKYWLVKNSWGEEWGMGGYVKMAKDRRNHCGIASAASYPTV
- TEST DESCRIPTION: Human Cathepsin L (CatL) enzymatic assay
- Assay type: biochemical
- CONDITION NOTES: CatL 0.05 nM, substrate 500 nM, pH 5.5; read-out: Enzymatic inhibition IC50
Collected log10 IC50 values appear next to each entry.
ATTRIBUTE MEASURED: log10 IC50 (log10 of the value in nM)

> print(dat)
                            chemical.smiles  observed.result
1  COCCN1CC=C(c2ccc3nc(C[C@H](NC(=O)c4cc(C5(C)CC5)nn4C4CC4)C(=O)NC4(C#N)CC4)oc3c2)CC1             0.00
2  CC(=O)Nc1ccc(-c2ccc3nc(C[C@H](NC(=O)c4cc(C5(C)CC5)nn4C4CC4)C(=O)NC4(C#N)CC4)oc3c2)cn1             0.72
3  CN1CCN(c2ccc3nc(C[C@H](NC(=O)c4cccc(Cl)c4)C(=O)NC4(C#N)CC4)oc3c2)C(=O)C1             2.09
4  CN1CC=C(c2ccc3nc(C[C@H](NC(=O)c4cccc(Cl)c4)C(=O)NC4(C#N)CC4)oc3c2)CC1             0.93
5  N#CC1(NC(=O)[C@H](Cc2nc3c(-c4cn[nH]c4)cccc3o2)NC(=O)c2cccc(Cl)c2)CC1             2.56
6  CCNc1ccc(-c2ccc3nc(C[C@H](NC(=O)c4cc(C5(C)CC5)nn4C4CC4)C(=O)NC4(C#N)CC4)oc3c2)cn1            -0.10
7  N#CC1(NC(=O)[C@H](Cc2nc3ccccc3s2)NC(=O)c2cccc(Cl)c2)CC1             1.07

###

Collected activity at 0.5 µM values appear next to each entry.
- System: SARS-CoV-2 PsVs
- TEST DESCRIPTION: microbe, parasite or virus in culture
- Format: cell-based
- CONDITION NOTES: Severe acute respiratory syndrome coronavirus 2, Vero C1008, 24 h, read-out: % Infection rate at 500 nM
ATTRIBUTE MEASURED: activity at 0.5 µM

> print(dat)
                                   molecule  attribute.measured  observed.result
1  N#CC1(NC(=O)[C@H](Cc2nc3cc(Cl)ccc3o2)NC(=O)c2cccc(Cl)c2)CC1 [Compound 8]  activity at 0.5 µM              92%
2  N#CC1(NC(=O)[C@H](Cc2nc3c(-c4cn[nH]c4)cccc3o2)NC(=O)c2cccc(Cl)c2)CC1 [Compound 23]  activity at 0.5 µM              93%
3  CC1(c2cc(C(=O)N[C@@H](Cc3nc4ccc(-c5ccnc(C6CC6)c5)cc4o3)C(=O)NC3(C#N)CC3)n(C3CC3)n2)CC1 [Compound 48]  activity at 0.5 µM              63%
4  Cn1c(C[C@H](NC(=O)c2cccc(Cl)c2)C(=O)NC2(C#N)CC2)nc2ccccc21 [Compound 32]  activity at 0.5 µM             101%
5  CCNc1ccc(-c2ccc3nc(C[C@H](NC(=O)c4cc(C5(C)CC5)nn4C4CC4)C(=O)NC4(C#N)CC4)oc3c2)cn1 [Compound 43]  activity at 0.5 µM              18%
6  CC(C)(C)c1cc(C(=O)N[C@@H](Cc2nc3ccc(Br)cc3o2)C(=O)NC2(C#N)CC2)n(C2CC2)n1 [Compound 33]  activity at 0.5 µM              39%
7  CC1(c2cc(C(=O)N[C@@H](Cc3nc4ccc(C5=CCN(CC(F)F)CC5)cc4o3)C(=O)NC3(C#N)CC3)n(C3CC3)n2)CC1 [Compound 40]  activity at 0.5 µM              57%

###

- System: SARS-CoV-2 PsVs
- TEST DESCRIPTION: microbe, parasite or virus in culture
- Type: cell-based
- CONDITION NOTES: Severe acute respiratory syndrome coronavirus 2, Vero C1008, 24 h, read-out: % Infection rate at 500 nM
1 if activity at 0.5 µM is below 60%. 0 if not; exact matches included in 0.

> print(dat)
                            chemical.smiles      test.target  category.label
1  N#CC1(NC(=O)[C@H](Cc2nc3ccccc3o2)NC(=O)c2cccc(Cl)c2)CC1  SARS-CoV-2 PsVs               0
2  N#CC1(NC(=O)[C@H](Cc2nc3cc(C(F)(F)F)ccc3o2)NC(=O)c2cccc(Cl)c2)CC1  SARS-CoV-2 PsVs               0
3  Cc1cc(-c2ccc3nc(C[C@H](NS(=O)(=O)c4cccc(Br)c4)C(=O)NCC#N)oc3c2)ccn1  SARS-CoV-2 PsVs               0
4  COCCN1CC=C(c2ccc3nc(C[C@H](NC(=O)c4cc(C5(C)CC5)nn4C4CC4)C(=O)NC4(C#N)CC4)oc3c2)CC1  SARS-CoV-2 PsVs               1
5  CN1CCN(c2ccc3nc(C[C@H](NC(=O)c4cc(C5CC5)nn4C4CC4)C(=O)NCC#N)oc3c2)CC1  SARS-CoV-2 PsVs               1
6  CC1(c2cc(C(=O)N[C@@H](Cc3nc4ccc(-c5ccnc(C(F)F)c5)cc4o3)C(=O)NC3(C#N)CC3)n(C3CC3)n2)CC1  SARS-CoV-2 PsVs               1
7  Cn1nc(C(C)(C)C)cc1C(=O)N[C@@H](Cc1nc2ccccc2o1)C(=O)NC1(C#N)CC1  SARS-CoV-2 PsVs               1

###

- System: SARS-CoV-2 PsVs
- TEST DESCRIPTION: microbe, parasite or virus in culture
- Format: cell-based
- CONDITION NOTES: Severe acute respiratory syndrome coronavirus 2, Vero C1008, 24 h, read-out: % Infection rate at 5 uM
ATTRIBUTE MEASURED: activity at 5 µM (%)

> print(dat)
                            chemical.smiles  observed.result
1  N#CC1(NC(=O)[C@H](Cc2nc3ccc(Cl)cc3o2)NC(=O)c2cccc(Cl)c2)CC1               73
2  N#CC1(NC(=O)[C@H](Cc2nc3cc(C(F)(F)F)ccc3o2)NC(=O)c2cccc(Cl)c2)CC1               96
3  N#CC1(NC(=O)[C@H](Cc2nc3ccccc3o2)NC(=O)c2cccc(Cl)c2)CC1               39
4  N#CC1(NC(=O)[C@H](Cc2nc3ccccc3o2)NC(=O)c2cn(C3CC3)nc2C(F)F)CC1             77.3
5  N#Cc1cccc2nc(C[C@H](NC(=O)c3cccc(Cl)c3)C(=O)NC3(C#N)CC3)oc12               81
6  N#CC1(NC(=O)[C@H](Cc2nc3ccc(C4=CCN(CC(F)F)CC4)cc3o2)NC(=O)c2cccc(Cl)c2)CC1               38
